- tested system: ATP-dependent Clp protease proteolytic subunit (Bacillus subtilis (strain 168)) (UniProt P80244)
- Sequence (P80244 whole entry, looked up): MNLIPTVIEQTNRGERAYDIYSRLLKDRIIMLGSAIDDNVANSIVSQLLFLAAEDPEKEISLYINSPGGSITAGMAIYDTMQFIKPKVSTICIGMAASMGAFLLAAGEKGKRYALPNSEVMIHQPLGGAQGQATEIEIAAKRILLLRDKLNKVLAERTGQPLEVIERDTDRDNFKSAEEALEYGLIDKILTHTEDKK
- test: qHTS Assay for Activators of ClpP; also: the source files actives as falling curves though it sought activators and does not explain the sign; nearly all actives have a fitted effect of over 65% in size
- study conditions: purified B. subtilis ClpP, FRET peptide cleavage, 20 min; series mostly up to 57.5 µM
In all, about 340,000 compounds went through this assay and about 6,400 (1.9%) were called active. Another 4% or so got no clear call; they are omitted. Calls follow the shape of the dose curve; as a rule, active = well fitted falling curve with a large enough effect; inconclusive = small, poorly fitted or top-dose-only effect; inactive = no such curve, though single readings can be large or run the other way. The entries come from a sample that favours actives as a whole.
Lab note: assign the record to one of TRUE (active), FALSE (inactive)

O=C(COC(=O)c1ccc(F)cc1)Nc1ccc2c(c1)OCO2 : FALSE
CCN1CCCC1CNc1ncnc2c1[nH]c1ccc(F)cc12 (stereo unspecified) : TRUE
CC(C)OCCCNC(=O)c1cc(Sc2ccc(F)cc2)nc2ccccc12 : FALSE
O=C(COC(=O)c1ccccc1)c1ccc2c(c1)OCCO2 : FALSE
CC(C)OCCCNc1ncnc2c1[nH]c1ccc(F)cc12 : TRUE

Query string: Record lookup: outcome of this test for CCN1CCCC1CNC(=O)c1cc2cc(OC)c(OC)cc2[nH]1 (stereo unspecified) ?
Result string: FALSE

Query string: Next molecule up: `Fc1ccc2[nH]c3c(N4CCN(Cc5ccc6c(c5)OCO6)CC4)ncnc3c2c1`
Result string: FALSE

Query string: Next molecule up: CCN1CCCC1Cn1cnc2c([nH]c3cc(OC)ccc32)c1=O (stereo unspecified)
Result string: FALSE

Query string: Next molecule up: `Cc1cccc(Cn2c(=O)n(CCC(=O)NCCc3ccc(Cl)cc3)c(=O)c3sccc32)c1`
Result string: FALSE

Query string: Next molecule up: COc1ccc(C(=O)N2CCCCC2c2cc(C(=O)Nc3ccccc3)no2)cc1 (stereo unspecified)
Result string: FALSE

Query string: Next molecule up: `O=C(Cn1c(=O)nc(-c2ccccc2)c2cc(Cl)ccc21)NCc1ccc(Cl)cc1`
Result string: FALSE

###

- tested system: ATP-dependent Clp protease proteolytic subunit (Bacillus subtilis (strain 168)) (UniProt P80244)
- test: qHTS Assay for Activators of ClpP; also: the source files actives as falling curves though it sought activators and does not explain the sign; nearly all actives have a fitted effect of over 65% in size
- study conditions: purified B. subtilis ClpP, FRET peptide cleavage, 20 min; series mostly up to 57.5 µM
The whole screen tested about 340,000 compounds, of which about 6,400 (1.9%) were called active. About 4% were inconclusive and are not listed. The call rests on the fitted dose curve; in most records, active means well fitted falling curve with a large enough effect; inconclusive means small, poorly fitted or top-dose-only effect; inactive means no such curve, though single readings can be large or run the other way. The entries come from a sample that favours actives as a whole.
Lab note: assign the record to one of active, inactive

Worked cases, answers included:
Cc1ccc(-n2ncc(C(=O)NC3CC3)c2C2CCN(C(=O)OC(C)(C)C)CC2)c(C)c1 : inactive
Cc1ccccc1NC(=O)c1ccc(COc2ccc3c(C)cc(=O)oc3c2)cc1 : inactive
CS(=O)(=O)c1ccc(Cl)c(NC(=O)COC(=O)c2ncc(Cl)c(Cl)c2Cl)c1 : active
Nc1[nH]c(C(=O)c2ccccc2)c(-c2ccncc2)c1C(=O)NCc1cccc2ccccc12 : inactive
O=C(COC(=O)c1ncc(Cl)c(Cl)c1Cl)NNC(=O)c1ccccc1 : inactive
Cc1ccccc1N1CCN(CCCOc2ccc3c(C)cc(=O)oc3c2)CC1 : active
O=C(c1ccc(Cl)cc1)n1cnc2ccccc21 : inactive
COc1ccccc1N1CCN(CCCCOc2ccc(F)cc2)CC1 : inactive

Field: next molecule
Query string: Record lookup: outcome of this test for `O=C(COc1ncnc2ccccc12)NC(=O)NCc1ccccc1` ?
Result string: inactive

All figures here come from PubChem BioAssay AID651965.
